growth overview
System: U251 CNS
Assay: NCI-60 one-dose screen, 48 h (100 = growth as untreated, 0 = no growth, -100 = all killed)
Settings: 10 µM unless noted
Compounds without any hit were thinned out: in the full panel of roughly 83,000, 20% have a hit.

{"molecule": "Oc1ccc(N=Cc2ccc(OCc3ccccc3)cc2)cc1", "experimentalSystem": "U251 CNS", "measurementUnits": "%", "growth": 102}
{"molecule": "OCC1CCC(O)C(CO)N1 (stereo not drawn)", "experimentalSystem": "U251 CNS", "measurementUnits": "%", "growth": 100}
{"molecule": "CCC(=O)Oc1c(C)cc(O)c2ccccc12", "experimentalSystem": "U251 CNS", "measurementUnits": "%", "growth": 87.7}
{"molecule": "NCC(O)C(O)C(O)C(O)CO (stereo not drawn)", "experimentalSystem": "U251 CNS", "measurementUnits": "%", "growth": 90.5}
{"molecule": "Cc1cc(NC(=O)c2ccccc2)c(Cl)cc1N", "experimentalSystem": "U251 CNS", "measurementUnits": "%", "growth": 102}
{"molecule": "Cc1onc(-c2ccccc2Cl)c1C(=O)Cl", "experimentalSystem": "U251 CNS", "measurementUnits": "%", "growth": 96.8}
{"molecule": "CC(=O)NNC(=S)/N=C\\C(C(=O)c1ccccc1)=C(/O)c1ccccc1", "experimentalSystem": "U251 CNS", "measurementUnits": "%", "growth": 99.5}
{"molecule": "O=C(Nc1ccc([N+](=O)[O-])cc1)C(=O)Nc1ccc([N+](=O)[O-])cc1", "experimentalSystem": "U251 CNS", "measurementUnits": "%", "growth": 81.2}
{"molecule": "Cc1cc2nc(C)c(C)nc2cc1C", "experimentalSystem": "U251 CNS", "measurementUnits": "%", "growth": 98.3}
{"molecule": "C=CC(C)C(C)(C)O (stereo not drawn)", "experimentalSystem": "U251 CNS", "measurementUnits": "%", "growth": 103}
{"molecule": "O=C(c1cccc(C(=O)c2ccc3c4c(cccc24)C(=O)N(c2ccccc2)C3=O)c1)c1ccc2c3c(cccc13)C(=O)N(c1ccccc1)C2=O", "experimentalSystem": "U251 CNS", "measurementUnits": "%", "growth": 89.3}
{"molecule": "CC1(C)OC(=O)CC1=O", "experimentalSystem": "U251 CNS", "measurementUnits": "%", "growth": 83.2}
{"molecule": "CCOC(=O)CO", "experimentalSystem": "U251 CNS", "measurementUnits": "%", "growth": 110}

Attribution: PubChem BioAssay (NCI)
